- Tested on: MS2 coat protein
- Assay Comment: apparent KD of MS2 coat protein; designed switch direction (-1 OFF switch, 1 ON switch): -1; higher = weaker reporter binding
- Settings: input ligand: FMN 200 uM
Value Type: apparent KD of MS2 coat protein (nM)
Answer format: numeric, nM implied, no suffix.

Worked cases, apparent KD of MS2 coat protein given:
- Monomer Sequence: "GCUUUAUGCUCGUUAUAACACAUGAGGAUCACCCAUGUUCGGGCUUACGAGUCGUUCUGAAUGUGACCCUGCAUGAG [Eternabot (L2) Solution 47] (Eterna round: R97, puzzle: Sensor, turn-off variant 1)"
  Result Unit: "nM"
  Endpoint Result: 200
- Monomer Sequence: "GUGGUGGGUUUUCCGAGUGACAUGAGGAUCACCCAUGUGUUAGUUUGAGGUAUCAAGCGAAUGGCUCGUCUUAUGUG [JR_SV3TOV1_Sub046] (Eterna round: R96, puzzle: Sensor v3, turn-off variant 1)"
  Result Unit: "nM"
  Endpoint Result: 982
- Monomer Sequence: "AACUGGACAGGAUAUGUACUUGAGCACUUGAGGAUCACCCAAGUCAUCAAGUACUCAGGCACAGAAGGGUUUAUGA [jl-ex5.4.61 ViennaUCT mod] (Eterna round: R97, puzzle: Exclusion 5)"
  Result Unit: "nM"
  Endpoint Result: 142

Please find the next sequence below.
For reference, reported apparent KD of MS2 coat protein for UACACCACAUGAGGAUCAAACAUGAGGAUCACCCAUGUGUAGCAAGCUUUUUGCUCGUCUUAUAAAUAUGUGGUGUA [Electric Eye 7 - Jieux - Sensor, turn-off variant 1] (Eterna round: R97, puzzle: Sensor, turn-off variant 1) stands at 11.7

====

- Test system: K4 kissing-loop RNA reporter;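 further: bound reporter read as fluorescence of individual clusters on recovered sequencing chips by microscopy, with normalized cluster intensities fitted with a binding model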
- Assay Comment: apparent KD of K4 kissing-loop reporter; higher = weaker reporter binding
- Settings: Eterna round: R107; input ligand: none
Decide using apparent KD of K4 kissing-loop reporter: a value greater than or equal to 300 nM is class 1, a smaller one is class 0.

For orientation, consider the following solved cases.
- Monomer Sequence: "UUGGACCUUAGCCUCAAUAGAACUUUGUUACGAGGACCGGUACGGCCGCCACUCGUCGGGCUCCGAUAGCCAGUGAUGUUGGCAA [theeternabot_sameState_KL_Trp_A_16]"
  Assigned Category: "class 1"
- Monomer Sequence: "AGUGUUAGGUUAGAUACCAGCCGUCUGUAGAUAAUCCUCAGACCGCCAGUGAUGUUGGCAGGCCCUUGGCAGCUAACAGAACAGA [Orbediqu]"
  Assigned Category: "class 0"
- Monomer Sequence: "GCUAAGUGAUGUUUAUGCCGCCGACCGGAUACCAGCUACUAGGCAAGCCCUUGGCAGCCGCUAUGUGACCGAUCAUUAGUUAUGU [theeternabot_exclusion_KL_Theo_A_6]"
  Assigned Category: "class 1"

In: Is the recorded value of apparent KD of K4 kissing-loop reporter equal to or greater than 300 nM for this sequence? GUCUGUGUACUAGGAUAUGGUUGCAGGCAGUCAGGUCGCCUUUUCGGCGGCCAGUGAUGUUGGUGGCCAGAAGGAGUACGUGAUG [Raorin]
Out: class 1

In: Hi, just wondering whether UGACUGGACUGAAGGAGCGCUGAACUCCUAGUGAUGUUAGGAAAACGAGACAAAGUCUCGCGGCAGGUAGGUCGCAGUCUAGUCU shows apparent KD of K4 kissing-loop reporter of 300 nM or higher.
Out: class 0

In: Textbook exercise: given the entry AGACUACCAACACUGUCAAUAGACAGUGACUAGGAUAUGCUGAUAAGCAGAAGGAGUGAUGUUCCUAAUAGAAAGGUAGUCAAAU [FmnAX 17 #SwitchBubble #StaticStem #K4Early] , state whether its apparent KD of K4 kissing-loop reporter is greater than or equal to 300 nM.
Out: class 0

In: Form field: apparent KD of K4 kissing-loop reporter at least 300 nM? Entry: CCUAUCUCAUACGAUACCAGUCAAUGAUCUUUGAUCAAUGCCAUCACCGAGUGAUGUUCGGACCCUUGGCAGCGUAUGAGAUAGG [whbob_Ex_Theo_B_sa103]
Out: class 0

In: Check if apparent KD of K4 kissing-loop reporter >= 300 nM (inclusive). Item: GGAGGAGAAUAUGAUACCAGCAGAGAGAGAGAGGAAGUAUAGUGAUGUUAUAUGAGAGAAUGCCCUUGGCAGCAUAAGACGCAGG [#07 K4 Theophylline B Same State]
Out: class 0

In: Is reported apparent KD of K4 kissing-loop reporter greater than or equal to 300 nM here: ACGCAUGGGCAAGGAUAUGGUAGUGAUGUUACCUUUGCGGUGCCGGGAACGAAUGACGGUCAUGCGCCAGAAGGUGCUCAGACAA [theeternabot_exclusion_KL_FMN_B_23]
Out: class 0

In: Check if apparent KD of K4 kissing-loop reporter >= 300 nM (inclusive). Item: GGUCCACGCCAUGCCAGUGAUGUUGGUAAGCGAGGACCGGUACGGCCGCCACUCGUUCAAUACCGUAUCGCCCAUAACCUGGAGA [Oneseror]
Out: class 0

In: Tell me whether apparent KD of K4 kissing-loop reporter is at least 300 nM here: UAUUAAUUGUCAGGAUAUCGUAUUCGAGUGAUGUUCGUAUAUCGACGAUAGUCGAUAUUAUCUAUACGAGAAGGGACAUUAUUUA [JR_SSFMNB_Sub006]
Out: class 1

In: Could you please find out whether CCGUGGAGUGAUGUUCCACGUUCUACGGAUACCAGUUGUGCCAGCGGCCCUUGGCAGCCGCACCUUGCAGUGAUGUUGUGAGGCU [Same State Theophylline A Gf 6] has apparent KD of K4 kissing-loop reporter that meets 300 nM or exceeds it?
Out: class 0

Value source: the supplement of paper PMC9170038
